System: human TYK2 (JH2domain-pseudokinase) (Homo sapiens (Human), UniProt P29597)
Sequence (P29597 556-888): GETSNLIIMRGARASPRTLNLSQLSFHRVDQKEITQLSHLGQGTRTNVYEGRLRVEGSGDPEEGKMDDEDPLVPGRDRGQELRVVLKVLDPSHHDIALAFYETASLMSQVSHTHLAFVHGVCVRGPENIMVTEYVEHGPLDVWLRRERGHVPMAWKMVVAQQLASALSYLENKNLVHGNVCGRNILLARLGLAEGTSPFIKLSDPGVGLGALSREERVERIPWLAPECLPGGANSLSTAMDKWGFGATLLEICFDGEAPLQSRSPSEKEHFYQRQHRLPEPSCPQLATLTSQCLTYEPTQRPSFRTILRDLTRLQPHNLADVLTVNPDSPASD
Test method notes: TYK2 JH2 Domain Binding Assay (KINOMEscan)
pKd: −log10 of the molar value.
Property name: pKd

[in] So what does the record say about pKd for CNc1cc(Nc2cccn(-c3nc(C)co3)c2=O)nc2c(C(=O)NC3CC3)cnn12 [I-368] ?
[out] > 9.70

[in] So what does the record say about pKd for CC(C)(O)c1cccc(-n2cccc(Nc3cc(N)n4ncc(C(N)=O)c4n3)c2=O)n1 [I-41] ?
[out] 8.00 to 9.00

[in] So what does the record say about pKd for CNc1cc(Nc2cc(C)cnc2OC)nc2c(C(=O)NCC(C)(C)CO)cnn12 [I-270] ?
[out] 9.00 to 9.70

[in] So what does the record say about pKd for CNc1cc(Nc2cccn(C3CCCN(C)C3)c2=O)nc2c(C(=O)N[C@@H]3C[C@@H]3F)cnn12 (stereo partly shown) [I-506] ?
[out] > 9.70

====

System: Tyk2 kinase domain (DH1) (Homo sapiens (Human))
Sequence (P29597 897-1176): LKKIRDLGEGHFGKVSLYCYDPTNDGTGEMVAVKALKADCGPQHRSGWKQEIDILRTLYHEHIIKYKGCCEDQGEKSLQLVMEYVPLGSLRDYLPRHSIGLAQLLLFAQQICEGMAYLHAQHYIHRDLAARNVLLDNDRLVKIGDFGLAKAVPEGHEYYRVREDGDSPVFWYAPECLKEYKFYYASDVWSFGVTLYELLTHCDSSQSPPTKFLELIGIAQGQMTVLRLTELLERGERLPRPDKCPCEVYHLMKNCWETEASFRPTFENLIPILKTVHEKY
Test method notes: Tyk2 Radioactive Kinase Assay
Type: biochemical
Test context: compound at 10 μM; ATP 10 μM; read-out: Tyk2 JH1% Inhibition @ 10 μM
Item-by-item account of inhibition at 10 µM

[in] So what does the record say about inhibition at 10 µM for `CNc1cc(Nc2cc(F)cnc2OC2CC2)nc2c(C(=O)NC3CCC3)cnn12` ?
[out] < 50%

[in] So what does the record say about inhibition at 10 µM for `CNc1cc(Nc2cccc(N3CCC4(CCCO4)CC3)n2)nc2c(C(=O)N[C@@H]3CC[C@@H]3O)cnn12` ?
[out] < 50%

[in] So what does the record say about inhibition at 10 µM for CNc1cc(Nc2cccn(C3CCCOC3)c2=O)nc2c(C(=O)NC3CCC3)cnn12 (racemic) ?
[out] < 50%

[in] So what does the record say about inhibition at 10 µM for `CNc1cc(Nc2cccn(C[C@@H]3CCCCO3)c2=O)nc2c(C(=O)N[C@@H]3C[C@@H]3F)cnn12` ?
[out] < 50%

====

Item-by-item account of pKd
System: human TYK2 (JH2domain-pseudokinase) (Homo sapiens (Human), UniProt P29597)
Test method notes: TYK2 JH2 Domain Binding Assay (KINOMEscan)
pKd: −log10 of the molar value.

// known answers, use as guide
> print(dat)
                                   compound                                    system  value.reported
1  CNc1cc(Nc2cccnc2O[C@H]2C[C@H](OC)C2)nc2c(C(=O)NC3CCC3)cnn12  human TYK2 (JH2domain-pseudokinase) (Homo sapiens (Human), UniProt P29597)          > 9.70
2  CNc1cc(Nc2cccc(N3CCOCC3)n2)nc2c(C(=O)N[C@H]3C[C@H]3F)cnn12  human TYK2 (JH2domain-pseudokinase) (Homo sapiens (Human), UniProt P29597)          > 9.70
3  CNc1cc(Nc2cc(Cl)cn(C3CNC3)c2=O)nc2c(C(N)=O)cnn12  human TYK2 (JH2domain-pseudokinase) (Homo sapiens (Human), UniProt P29597)    9.00 to 9.70
4  CNc1cc(Nc2cccn([C@H]3CC[C@](C)(OC)CC3)c2=O)nc2c(C(=O)N[C@H]3CC[C@H]3O)cnn12  human TYK2 (JH2domain-pseudokinase) (Homo sapiens (Human), UniProt P29597)    9.00 to 9.70
5  CNc1cc(Nc2cccn(C3CCCCC3)c2=O)nc2c(C(=O)N[C@@H]3CC[C@@H]3O)cnn12  human TYK2 (JH2domain-pseudokinase) (Homo sapiens (Human), UniProt P29597)          > 9.70

[in] So what does the record say about pKd for `CNc1cc(Nc2cccn([C@H]3CCN(C)CC3(F)F)c2=O)nc2c(C(=O)NC3CC3)cnn12` ?
[out] 9.00 to 9.70

[in] So what does the record say about pKd for `NC(=O)c1cnn2c(N)cc(Nc3cccc(N4CCCC4=O)n3)nc12` ?
[out] > 9.70

[in] So what does the record say about pKd for CNc1cc(Nc2cccn(C3CCOCC3)c2=O)nc2c(C(=O)N[C@@H]3CCC[C@@](C)(OC)C3)cnn12 [I-1201] ?
[out] 9.00 to 9.70
